Could you please report measured pKd for the items listed next?
target-or-test-system: T1, recombinant hIL1RAP 21-367 (human, UniProt Q9NPH3 21-367)
T1 construct: range 21-367; also called Rec hIL1RAP Domain123 (aa21-367); Domain123
test: indirect ELISA on coated hIL1RAP 21-367, three-fold dilutions from 3.5 nM
The read-out pKd is expressed as -log10 of concentration in moles per litre.

// pKd lookup, binder = CAN04 (murine) as listed in Table 3 (antibody, human IgG1, kappa, V domains shown, Whether the footnotes apply to the row labelled '(murine)' is not certain) VH: QVQLQQSGPELLKPGASVKISCKASGYAFSSSWMNWVKQRPGKGLEWIGRIYPGDGNTHYSGKFKGKATLTADKSSSIAYMQLSSLTSEDSAVYFCGEGYLDPMDYWGQGTSVTVSS VL: DIQMTQTTSSLSASLGDRVTISCSASQGINNYLNWYQQKPDGTVKLLIHYTSGLHAGVPSRFSGSGSGTDYSLTISNLEPEDVATYYCQQYSILPWTFGGGTKLEIKR , result: 10.06

Lab book: pKd of hCAN04 Variant 3 (antibody, human IgG1, kappa, V domains shown, Human IgG1za / kappa, expressed in CHOK1SV cells; also called Var3; humanized variant 3 of CAN04) VH: QVQLVQSGAEVKKPGSSVKVSCKASGYTFTSSWMNWVRQAPGKGLEWMGRIYPGDGQTHYAQKFQGRVTLTADKSTSTAYMELSSLRSEDTAVYYCGEGYLDPMDYWGQGTLVTVSS VL: DIQMTQSPSSLSASVGDRVTITCSASQGINNYLNWYQQKPGKAPKLLIHYTSGLHAGVPSRFSGSGSGTDYTLTISSLQPEDVATYYCQQYSILPWTFGGGTKVEIKR noted as 9.35
